# Test Target: UniProt Q9SK84
# Sequence (Q9SK84 entry or part of it): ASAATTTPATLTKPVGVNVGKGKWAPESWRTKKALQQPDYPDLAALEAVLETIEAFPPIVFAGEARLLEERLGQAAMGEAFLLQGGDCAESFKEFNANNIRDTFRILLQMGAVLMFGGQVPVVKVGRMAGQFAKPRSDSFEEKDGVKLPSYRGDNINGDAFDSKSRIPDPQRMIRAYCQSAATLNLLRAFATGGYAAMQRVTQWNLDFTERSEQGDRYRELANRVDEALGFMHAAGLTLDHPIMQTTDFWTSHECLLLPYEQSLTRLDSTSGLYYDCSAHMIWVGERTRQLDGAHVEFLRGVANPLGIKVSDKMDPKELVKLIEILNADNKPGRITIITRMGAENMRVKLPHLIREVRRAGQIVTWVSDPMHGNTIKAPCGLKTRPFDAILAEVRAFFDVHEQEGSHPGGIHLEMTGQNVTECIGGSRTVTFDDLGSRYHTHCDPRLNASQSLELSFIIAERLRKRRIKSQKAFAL
# Procedure Details: DHS enzymatic activity assay with recombinant AthDHS3
# Type: biochemical
# Conditions: 1 mM effector
Endpoint Name: effect on AthDHS3 activity (in words)

Example cases with answers are listed next.
>>> observed("O=C(O)/C=C/c1ccccc1 [cinnamate]")
"no effects"
>>> observed("COc1cc(/C=C/C(=O)O)cc(OC)c1O [sinapate]")
"no effects"
>>> observed("COc1cc(/C=C/C(=O)O)ccc1O [ferulate]")
"no effects"
>>> observed("O=C(O)/C=C/c1ccc(O)cc1 [p-coumarate]")
"no effects"
>>> observed("O=C(O)/C=C/c1ccc(O)c(O)c1 [caffeate]")
"completely inhibited"

Now, please, on to the next molecule.
Incoming: Find the recorded effect on AthDHS3 activity (in words) belonging to C=C(O[C@@H]1C=C(C(=O)O)C=C[C@H]1O)C(=O)O [chorismate] and report it.
Outgoing: completely inhibited

Data provenance is paper PMC8136874.
